Target: T1, recombinant His-tagged Der p1 (dust mite, UniProt P08176 99-320, limits assumed)
T1 construct: Recombinant His-tagged protein made by the applicant; also called Der p1-His; Der pl; not shown: His tag
T1 sequence (looked up): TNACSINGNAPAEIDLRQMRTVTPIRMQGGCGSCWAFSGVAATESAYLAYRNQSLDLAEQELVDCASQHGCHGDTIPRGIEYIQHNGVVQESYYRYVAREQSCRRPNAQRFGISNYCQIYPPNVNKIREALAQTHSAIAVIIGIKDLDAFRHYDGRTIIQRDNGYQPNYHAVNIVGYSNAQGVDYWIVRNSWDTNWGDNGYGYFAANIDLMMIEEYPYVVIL
Assay: ELISA, Der p1 on plate, biotinylated peptide at 0.041, duplicate 2
No end group written: not given here.
Label NOT MET if OD450 falls below 0.06 OD450; label MET in every other case.

AVVSFYP (also: biotinylated, site not given here, 7-amino acid peptide from a phage display library) [SDAB22110-2-F1]
MET
HSGPECG (also: biotinylated, site not given here, 7-amino acid peptide from a phage display library) [SDAB22110-2-D3]
MET
YPTWAYR (also: biotinylated, site not given here, 7-amino acid peptide from a phage display library) [SDAB22110-2-C3]
NOT MET

-- ask Textbook exercise: given the entry VVAFGIS (also: biotinylated, site not given here, 7-amino acid peptide from a phage display library) [SDAB22110-2-G1] , state whether its OD450 is greater than or equal to 0.06 OD450.
-- reply MET
